pIC50 values for the molecules below.
Target: GuaB (IMP dehydrogenase) (Bacillus subtilis, UniProt P21879)
Sequence (P21879 whole entry): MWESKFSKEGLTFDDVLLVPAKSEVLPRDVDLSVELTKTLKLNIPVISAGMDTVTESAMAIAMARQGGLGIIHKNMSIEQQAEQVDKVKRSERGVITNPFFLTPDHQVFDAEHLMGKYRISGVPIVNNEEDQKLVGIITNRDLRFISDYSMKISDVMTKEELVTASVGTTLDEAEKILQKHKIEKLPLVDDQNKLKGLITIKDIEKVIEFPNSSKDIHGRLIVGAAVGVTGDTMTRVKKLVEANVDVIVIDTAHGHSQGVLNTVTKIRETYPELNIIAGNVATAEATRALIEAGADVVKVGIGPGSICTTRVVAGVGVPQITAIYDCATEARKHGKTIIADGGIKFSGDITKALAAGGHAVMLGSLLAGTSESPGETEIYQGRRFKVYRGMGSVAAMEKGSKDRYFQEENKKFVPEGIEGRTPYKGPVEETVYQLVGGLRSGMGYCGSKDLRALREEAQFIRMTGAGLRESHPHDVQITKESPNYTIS
pIC50: −log10 of the molar value.
READOUT_NAME: pIC50

• Nc1nc2c(ncn2[C@@H]2O[C@H](COP(=O)(O)OP(=O)(O)O)[C@@H](OP(=O)(O)OP(=O)(O)O)[C@H]2O)c(=O)[nH]1 = ~3.30
• Nc1nc2c(ncn2[C@@H]2O[C@H](COP(=O)(O)OP(=O)(O)OP(=O)(O)O)[C@@H](OP(=O)(O)OP(=O)(O)O)[C@H]2O)c(=O)[nH]1 = ~3.52

====

Assay system Gmk (guanylate kinase) (Bacillus subtilis, UniProt O34328); read-out recorded as IC50.
READOUT_NAME: IC50

• Nc1nc2c(ncn2[C@@H]2O[C@H](COP(=O)(O)OP(=O)(O)OP(=O)(O)O)[C@@H](OP(=O)(O)OP(=O)(O)O)[C@H]2O)c(=O)[nH]1 = ~20 µM
• Nc1nc2c(ncn2[C@@H]2O[C@H](COP(=O)(O)OP(=O)(O)O)[C@@H](OP(=O)(O)OP(=O)(O)O)[C@H]2O)c(=O)[nH]1 = ~20 µM

# credit: paper PMC3483369
